molecular target: human muscarinic M3 receptor (Homo sapiens, UniProt P20309); construct: expressed in transfected cells; experiment: Alphascreen Surefire phospho-ERK1/2 functional assay, M3; format: cell-based; details: pEC50 M3, CHO cells stably expressing human M3; phospho-ERK1/2
Sequence (P20309 whole entry): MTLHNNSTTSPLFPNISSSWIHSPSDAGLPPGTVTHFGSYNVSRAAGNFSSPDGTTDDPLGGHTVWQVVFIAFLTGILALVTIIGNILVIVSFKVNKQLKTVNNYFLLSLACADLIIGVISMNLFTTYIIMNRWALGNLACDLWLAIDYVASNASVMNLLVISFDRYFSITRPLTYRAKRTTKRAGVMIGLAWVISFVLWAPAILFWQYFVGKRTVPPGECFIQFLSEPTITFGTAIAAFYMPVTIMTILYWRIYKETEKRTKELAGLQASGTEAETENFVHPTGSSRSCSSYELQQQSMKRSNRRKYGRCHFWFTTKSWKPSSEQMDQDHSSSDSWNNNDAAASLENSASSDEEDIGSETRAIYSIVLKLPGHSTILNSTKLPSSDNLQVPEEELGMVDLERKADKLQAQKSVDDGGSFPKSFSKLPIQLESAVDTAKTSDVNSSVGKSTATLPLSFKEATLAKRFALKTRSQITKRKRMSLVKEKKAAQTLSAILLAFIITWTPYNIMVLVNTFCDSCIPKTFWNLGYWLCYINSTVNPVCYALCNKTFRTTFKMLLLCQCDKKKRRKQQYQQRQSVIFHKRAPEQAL
Consider the following compounds; for each one, report its EC50.

In [3]: df
Out[3]:
                                   compound  value_reported
0  CCOC(=O)N1C2COCC1CC(N1CCC3(CC1)CC3)C2 (single isomer, unassigned) [Example 5-1 Isomer 1]         > 20 µM
1  CCOC(=O)N1C2COCC1CC(N1CCC(c3cccnc3OC)CC1)C2 (single isomer, unassigned) [Example 2-2 Isomer 1]         > 20 µM
2  CCOC(=O)N1C2COCC1CC(N1CCC(n3cc(C)cn3)CC1)C2 (single isomer, unassigned) [Example 1-3 Isomer 1]         2.51 µM
3  CCOC(=O)N1C2COCC1CC(N1CCC(N(CC(C)C)C(C)=O)CC1)C2 (single isomer, unassigned) [Example 6-1 Isomer 1]         > 20 µM
4  CCOC(=O)N1C2COCC1CC(N1CCC(N3CCCCCC3=O)CC1)C2 (single isomer, unassigned) [Example 6-7 Isomer 1]         > 20 µM

Sample CCOC(=O)N1C2COCC1CC(N1CCC(N(CC3(C)CC3)C(C)=O)CC1)C2 (single isomer, unassigned) [Example 6-3 Isomer 1] , system: human muscarinic M3 receptor (Homo sapiens, UniProt P20309). Its EC50 is > 20 µM

###

Field: % Emax cf. ACh, M1. Provide a value for each of the molecules that follow.
Target: human muscarinic M1 receptor (Homo sapiens, UniProt P11229)
Sequence (P11229 1-460): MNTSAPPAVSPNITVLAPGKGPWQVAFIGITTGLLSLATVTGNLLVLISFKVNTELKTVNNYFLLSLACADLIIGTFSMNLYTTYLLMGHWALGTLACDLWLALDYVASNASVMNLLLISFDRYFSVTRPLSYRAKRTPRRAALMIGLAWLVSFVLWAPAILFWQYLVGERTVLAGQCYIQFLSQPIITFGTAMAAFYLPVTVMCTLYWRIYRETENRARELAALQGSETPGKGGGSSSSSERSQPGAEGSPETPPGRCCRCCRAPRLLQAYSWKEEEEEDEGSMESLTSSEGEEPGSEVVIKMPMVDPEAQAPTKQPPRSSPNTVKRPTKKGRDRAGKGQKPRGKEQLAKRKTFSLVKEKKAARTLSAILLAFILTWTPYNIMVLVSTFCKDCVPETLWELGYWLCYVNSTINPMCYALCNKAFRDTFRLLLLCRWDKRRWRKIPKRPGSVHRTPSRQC
Test: Alphascreen Surefire phospho-ERK1/2 functional assay, M1
Type: cell-based
Settings: CHO cells stably expressing human M1; Emax relative to ACh
Value and unit, in that order.

Some solved entries appear below for comparison.
>>> df
                                   molecule  measured_parameter  value_reported
0  CCOC(=O)N1C2COCC1CC(N1CCC(N(CC(C)C)C(C)=O)CC1)C2 (single isomer, unassigned) [Example 6-1 Isomer 2]  % Emax cf. ACh, M1            102%
1  CCOC(=O)N1C2COCC1CC(N1CCC3(CC1)CNC(=O)O3)C2 (single isomer, unassigned) [Example 5-3 Isomer 2]  % Emax cf. ACh, M1             73%

Read the next record carefully.
Lab note: CCOC(=O)N1C2COCC1CC(N1CCC(N(Cc3ccccc3)C(C)=O)CC1)C2 (single isomer, unassigned) [Example 6-5 Isomer 2] gave % Emax cf. ACh, M1 of 91%

Values compiled from patent US10787447B2.
